test system: 435261-313-R-J1-PDC complex spheroid viability; experiment: Anticancer human tumor 435261-313-R-J1-PDC patient-derived colon adenocarcinoma cell line growth inhibition [GQUAD]; conditions: second compound 0.0316 µM; first compound 0.1 µM; hits give low values;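 also: spheroids exposed to the agents for seven days before readout; percent of vehicle control viability with DMSO wells as 100%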
measuredEndpoint: viability, T/C (%)
Dear colleague, please return just the value in %, with no unit written.

# value of viability, T/C, 435261-313-R-J1-PDC complex spheroid viability, item Nc1ccn(C2OC(CO)C(O)C2(F)F)c(=O)n1 (configuration not stated) + CN(C)c1ccc(Nc2c3ccc(NC(=O)CCN4CCCC4)cc3nc3cc(NC(=O)CCN4CCCC4)ccc23)cc1 = 78.8

435261-313-R-J1-PDC complex spheroid viability assay, compound COc1ncnc(C2CC2)c1-c1ncc2cnn(Cc3ccc(-c4nc(C(F)(F)F)cn4C(C)C)cc3)c2n1 + Cc1cnc(CNC(=O)c2c(=O)c3ccc(N4CCCN(C)CC4)nc3n3c2sc2ccccc23)cn1 , recorded viability, T/C = 55.6

Log: 435261-313-R-J1-PDC complex spheroid viability, compound COc1ncnc(C2CC2)c1-c1ncc2cnn(Cc3ccc(-c4nc(C(F)(F)F)cn4C(C)C)cc3)c2n1 + CN(C)c1ccc(Nc2c3ccc(NC(=O)CCN4CCCC4)cc3nc3cc(NC(=O)CCN4CCCC4)ccc23)cc1 , viability, T/C = 94.3

Result for Cc1cccc(N(C)C(=O)C2C(O)CCN2c2nc(C)cc(C(F)(F)F)c2C#N)c1 (configuration not stated) + Cc1cnc(CNC(=O)c2c(=O)c3ccc(N4CCCN(C)CC4)nc3n3c2sc2ccccc23)cn1 , tested on 435261-313-R-J1-PDC complex spheroid viability, viability, T/C: 76.9

I looked up C=CCn1c(=O)c2cnc(Nc3ccc(N4CCN(C)CC4)cc3)nc2n1-c1cccc(C(C)(C)O)n1 + CN(C)c1ccc(Nc2c3ccc(NC(=O)CCN4CCCC4)cc3nc3cc(NC(=O)CCN4CCCC4)ccc23)cc1 and its viability, T/C for 435261-313-R-J1-PDC complex spheroid viability was 145

Per the reported 435261-313-R-J1-PDC complex spheroid viability data, C=CCn1c(=O)c2cnc(Nc3ccc(N4CCN(C)CC4)cc3)nc2n1-c1cccc(C(C)(C)O)n1 + Cc1cnc(CNC(=O)c2c(=O)c3ccc(N4CCCN(C)CC4)nc3n3c2sc2ccccc23)cn1 has viability, T/C of 59.2

Entry CC1COCCN1c1cc(C2(S(C)(=N)=O)CC2)nc(-c2ccnc3[nH]ccc23)n1 (configuration not stated) + Cc1cnc(CNC(=O)c2c(=O)c3ccc(N4CCCN(C)CC4)nc3n3c2sc2ccccc23)cn1 under 435261-313-R-J1-PDC complex spheroid viability had viability, T/C of 57.6

Measured viability, T/C (435261-313-R-J1-PDC complex spheroid viability), entry Nc1ccn(C2OC(CO)C(O)C2(F)F)c(=O)n1 (configuration not stated) + Cc1cnc(CNC(=O)c2c(=O)c3ccc(N4CCCN(C)CC4)nc3n3c2sc2ccccc23)cn1 : 63.4

435261-313-R-J1-PDC complex spheroid viability data for COc1cccc2c1C(=O)c1c(O)c3c(c(O)c1C2=O)CC(O)(C(=O)CO)CC3OC1CC(N)C(O)C(C)O1 (configuration not stated) + Cc1cnc(CNC(=O)c2c(=O)c3ccc(N4CCCN(C)CC4)nc3n3c2sc2ccccc23)cn1 ; its viability, T/C: 48.1

Entry CC(=O)O[C@H]1C(=O)[C@@]2(C)[C@H]([C@H](OC(=O)c3ccccc3)[C@]3(O)C[C@H](OC(=O)[C@H](O)[C@@H](NC(=O)c4ccccc4)c4ccccc4)C(C)=C1C3(C)C)[C@]1(OC(C)=O)CO[C@@H]1C[C@@H]2O + CN(C)c1ccc(Nc2c3ccc(NC(=O)CCN4CCCC4)cc3nc3cc(NC(=O)CCN4CCCC4)ccc23)cc1 , 435261-313-R-J1-PDC complex spheroid viability data, viability, T/C value: 78.6

Reading of viability, T/C for O=c1[nH]cc(F)c(=O)[nH]1 + Cc1[nH]c2ccc(F)cc2c1-c1nc2c3cccnc3c3ncccc3c2[nH]1 with 435261-313-R-J1-PDC complex spheroid viability: 72.3

Simply: Cc1cccc(N(C)C(=O)C2C(O)CCN2c2nc(C)cc(C(F)(F)F)c2C#N)c1 (configuration not stated) + CN(C)c1ccc(Nc2c3ccc(NC(=O)CCN4CCCC4)cc3nc3cc(NC(=O)CCN4CCCC4)ccc23)cc1 , 435261-313-R-J1-PDC complex spheroid viability, viability, T/C = 92.1

Reference source: PubChem BioAssay AID2060494
